From: the supplement of paper PMC7877785

experiment: self-splicing fitness, log relative to wild type (ln ratio); higher = more splicing; Tetrahymena group I intron in knt gene, E. coli kanamycin selection, DiMSum; sequences stand for … in CUCUCU…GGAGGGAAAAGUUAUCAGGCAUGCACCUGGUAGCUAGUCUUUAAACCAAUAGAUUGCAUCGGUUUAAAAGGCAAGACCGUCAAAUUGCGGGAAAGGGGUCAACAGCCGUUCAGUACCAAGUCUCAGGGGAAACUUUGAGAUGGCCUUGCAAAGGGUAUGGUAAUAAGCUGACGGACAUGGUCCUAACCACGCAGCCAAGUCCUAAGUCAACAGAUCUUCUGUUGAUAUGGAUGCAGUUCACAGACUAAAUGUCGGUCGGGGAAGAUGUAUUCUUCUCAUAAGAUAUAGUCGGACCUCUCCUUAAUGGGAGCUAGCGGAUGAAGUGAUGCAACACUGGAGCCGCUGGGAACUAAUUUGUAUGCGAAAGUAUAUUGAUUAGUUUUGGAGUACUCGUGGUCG; details: 30 °C;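 further: selection with 25 µg/mL kanamycin versus none on LB agar overnight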
endpoint: self-splicing fitness (ln)
Answers are plain numbers.

Please review the entries below; each comes with its answer.
• UCAAAGCAAUAUUACGUUGC = -3.48
• AUACAGCAAUAUUACGUCGG = -2.35
• CAGGAGCAAUAUUACGACGG = -1.44
• UGAGAGCAAUAUUACGCCAG = -3.52
• CCCAAGCAAUAUUACGUGGC = -3.5

Below are 6 sequences. Give each one its self-splicing fitness (ln).
1. UUCAAGCAAUAUUACGAUUG
2. GGCCAGCAAUAUUACGUAAG
3. GAUCAGCAAUAUUACGCCGU
4. AUAGAGCAAUAUUACGACAA
5. AGGUAGCAAUAUUACGUCGG
6. GGGCAGCAAUAUUACGUUCA

(A)
[-3.63, -1.3, -0.933, -1.04, -2.8, -0.593]

Below are 6 sequences. Give each one its self-splicing fitness (ln).
1. AAAAAGCAAUAUUACGCGCG
2. GACCAGCAAUAUUACGUACA
3. AACGAGCAAUAUUACGGUGG
4. AGACAGCAAUAUUACGAUUG
5. UUGUAGCAAUAUUACGCUGA
6. CCGGAGCAAUAUUACGGGGG

(A)
1. -0.0286
2. -0.568
3. -3.68
4. -2.94
5. -1.09
6. -3.5

Below are 8 sequences. Give each one its self-splicing fitness (ln).
1. UAUAAGCAAUAUUACGUGGA
2. AUAAAGCAAUAUUACGUUAG
3. CUGAAGCAAUAUUACGAAAG
4. UCGCAGCAAUAUUACGAAGA
5. AGCGAGCAAUAUUACGGGGA
6. CGGUAGCAAUAUUACGUACA
7. AGUCAGCAAUAUUACGAUCA
8. ACACAGCAAUAUUACGCUAG

(A)
[-2.08, -1.33, -0.525, -2.23, -2.64, -1.51, 0.171, -1.41]
